# run-description: qHTS assay to identify small molecule agonists of the estrogen receptor beta (ER-beta) signaling pathway - cell viability counter screen (AID 1259380); note: nearly all actives have a fitted effect of over 30% in size
# assay-setup: ER-beta-bla HEK293T viability, CellTiter-Glo luminescence, 16 h; series mostly up to 92.4 µM
Results filed as inconclusive are left out. Activity calls are given as the source filed them. Calls come from the whole dose curve; as a rule, active = well fitted cell-killing curve with a large enough effect in the repeat runs; inconclusive = weak or mixed curves, or effect the other way; inactive = flat fitted curve, though single readings scatter.
Permitted responses: yes = active, no = inactive

For orientation, consider the following solved cases.
ClCC(Cl)CCl : no
COc1ccc(O)c(C(C)(C)C)c1 : no
C[N+](C)(C)CC(=O)[O-] : no
Clc1cccc(C(Cl)(Cl)Cl)n1 : no
c1ccc2c(c1)Nc1ccccc1S2 : no

Challenge: Check the results log: what was the call for `Cc1cccc(N=Nc2ccc(N(C)C)cc2)c1` ?
Response given: yes

Challenge: Check the results log: what was the call for `CCOC(=O)c1ccccc1N` ?
Response given: no

Challenge: Check the results log: what was the call for `C[N+](C)(C)CC(=O)O` ?
Response given: no

Challenge: Check the results log: what was the call for `CCCCOCCOC(C)=O` ?
Response given: no
